Values were extracted from ChEMBL document CHEMBL5380793.

experiment: Half life in Sprague-Dawley rat at 5 mg/kg, iv measured for 24 hrs by LC-MS analysis; format: ADME, organism-based; conditions: in vivo
measuredParameter: half-life (h)

INSERT INTO measurements (chemicalsmiles, measuredparameter, measurementunit, resultvalue) VALUES
  ('Cc1cc(Nc2nc(-c3ccccc3)ncc2Cl)c(OC(C)C)cc1C1CCNCC1', 'half-life', 'h', 26.2);

====

assay: Tmax in Sprague-Dawley rat at 15 mg/kg, po measured for 24 hrs by LC-MS analysis; format: ADME, organism-based; conditions: in vivo
measuredParameter: Tmax

INSERT INTO assay_data (chemicalsmiles, resultvalue) VALUES
  ('Cc1cc(Nc2nc(-c3ccccc3)ncc2Cl)c(OC(C)C)cc1C1CCNCC1', '> 24 h');

====

experiment: Cytotoxicity against human HepG2 cells assessed as inhibition of cell growth incubated for 48 hrs by MTT assay; format: toxicity, cell-based
Flag rule - IC50 at 48 h less than 2000 nM flags Criterion met; the remaining entries get Criterion not met.

INSERT INTO measurements (chemicalsmiles, classname) VALUES
  ('COc1cccc(Nc2ncc(Cl)c(Nc3cc(C)c(C4CCNCC4)cc3OC(C)C)n2)c1', 'Criterion met'),
  ('Cc1cc(Nc2nc(-c3ccc(C(C)(C)C)cc3)ncc2Cl)c(OC(C)C)cc1C1CCNCC1', 'Criterion not met'),
  ('Cc1cc(Nc2nc(-c3ccccc3)nc3ccccc23)c(OC(C)C)cc1C1CCNCC1', 'Criterion not met'),
  ('Cc1cc(Nc2nc(Nc3ccc(Cl)cc3Cl)ncc2Cl)c(OC(C)C)cc1C1CCNCC1', 'Criterion not met'),
  ('Cc1cc(Nc2nc(-c3cccnc3)ncc2Cl)c(OC(C)C)cc1C1CCNCC1', 'Criterion met');

====

MIC values for the compounds below.
system: Mycobacterium tuberculosis; assay: Antibacterial activity against Mycobacterium tuberculosis clinical isolate K5 assessed as inhibition of bacterial growth incubated for 6 days by microplate alamar blue assay; type: functional; details: K5, 144 h, time 6 day
measuredParameter: MIC (µg/mL)

INSERT INTO measurements (chemicalsmiles, assaytarget, reportedrelation, resultvalue) VALUES
  ('Cc1cc(Nc2nc(Nc3ccc(F)cc3)ncc2Cl)c(OC(C)C)cc1C1CCNCC1', 'Mycobacterium tuberculosis', '=', 2),
  ('CO[C@H]1/C=C/O[C@@]2(C)Oc3c(C)c(O)c4c(O)c(c(/C=N/N5CCN(C)CC5)c(O)c4c3C2=O)NC(=O)/C(C)=C\C=C\[C@H](C)[C@H](O)[C@@H](C)[C@@H](O)[C@@H](C)[C@H](OC(C)=O)[C@@H]1C', 'Mycobacterium tuberculosis', '>', 50),
  ('NNC(=O)c1ccncc1', 'Mycobacterium tuberculosis', '>', 50),
  ('Cc1cc(Nc2nc(-c3ccccc3)ncc2Cl)c(OC(C)C)cc1C1CCNCC1', 'Mycobacterium tuberculosis', '=', 1);

====

test: Cytotoxicity against human HepG2 cells assessed as inhibition of cell growth incubated for 48 hrs by MTT assay; type: toxicity, cell-based
Flag rule - IC50 at 48 h less than 3 µM flags t; the remaining entries get f.

INSERT INTO assay_data (chemicalsmiles, classname) VALUES
  ('Cc1cc(Nc2nc(-c3ccc(C(C)C)cc3)ncc2Cl)c(OC(C)C)cc1C1CCNCC1', 't'),
  ('Cc1cc(Nc2nc(Nc3cccc(Cl)c3)ncc2Cl)c(OC(C)C)cc1C1CCNCC1', 't'),
  ('Cc1ccc(-c2ncc(Cl)c(Nc3cc(C)c(C4CCNCC4)cc3OC(C)C)n2)cc1', 't'),
  ('Cc1cc(Nc2cc(C(F)(F)F)nc(-c3ccccc3)n2)c(OC(C)C)cc1C1CCNCC1', 't'),
  ('COc1ccccc1Nc1ncc(Cl)c(Nc2cc(C)c(C3CCNCC3)cc2OC(C)C)n1', 't'),
  ('CCCCOc1cc(N2CCNCC2)ccc1Nc1nc(-c2ccccc2)ncc1Cl', 't'),
  ('Cc1cc(Nc2ccnc(-c3ccccc3)n2)c(OC(C)C)cc1C1CCNCC1', 't'),
  ('Clc1cnc(-c2ccccc2)nc1Nc1ccc(N2CCNCC2)cc1OCC1CCCCC1', 't'),
  ('Cc1cc(Nc2nc(-c3ccc(Cl)cc3)ncc2Cl)c(OC(C)C)cc1C1CCNCC1', 't'),
  ('Cc1cc(Nc2cc(C)c(C3CCNCC3)cc2OC(C)C)nc(-c2ccccc2)n1', 't'),
  ('Clc1cnc(-c2ccccc2)nc1Nc1ccc(N2CCNCC2)cc1OC1CCCCC1', 'f'),
  ('CCOc1cc(N2CCNCC2)ccc1Nc1nc(-c2ccccc2)ncc1Cl', 't'),
  ('COc1cc(N2CCNCC2)ccc1Nc1nc(-c2ccccc2)ncc1Cl', 't'),
  ('Cc1cc(Nc2nc(-c3ccccc3)nc3ccsc23)c(OC(C)C)cc1C1CCNCC1', 't'),
  ('Cc1cc(Nc2nc(NC3CC3)ncc2Cl)c(OC(C)C)cc1C1CCNCC1', 'f'),
  ('Cc1cc(Nc2cc(-c3ccccc3)nc3ncnn23)c(OC(C)C)cc1C1CCNCC1', 'f'),
  ('CCCOc1cc(N2CCNCC2)ccc1Nc1nc(-c2ccccc2)ncc1Cl', 't'),
  ('Cc1cc(Nc2nc(-c3cccc(CO)c3)ncc2Cl)c(OC(C)C)cc1C1CCNCC1', 'f'),
  ('Cc1cc(Nc2nc(Nc3cccc(C(F)(F)F)c3)ncc2Cl)c(OC(C)C)cc1C1CCNCC1', 't'),
  ('Cc1cc(Nc2nc(Cl)ncc2Cl)c(OC(C)C)cc1C1CCNCC1', 'f');

====

assay: AUC(0 to t) in Sprague-Dawley rat at 5 mg/kg, iv measured for 24 hrs by LC-MS analysis; assay type: ADME, organism-based; parameters: dose 5 mg/kg, time 24 hrs, route iv; conditions: in vivo
measuredParameter: AUC(0-t) at 24 h (ng·h/mL)

INSERT INTO measurements (chemicalsmiles, measuredparameter, resultvalue) VALUES
  ('Cc1cc(Nc2nc(-c3ccccc3)ncc2Cl)c(OC(C)C)cc1C1CCNCC1', 'AUC(0-t) at 24 h', 1690);

====

assay: Cytotoxicity against human HepG2 cells assessed as inhibition of cell growth incubated for 48 hrs by MTT assay; type: toxicity, cell-based
IC50 at 48 h values for the compounds below.
measuredParameter: IC50 at 48 h (nM)

INSERT INTO measurements (compound, measuredparameter, resultvalue) VALUES
  ('Cc1cc(Nc2nc(Nc3cccc(F)c3)ncc2Cl)c(OC(C)C)cc1C1CCNCC1', 'IC50 at 48 h', 1900),
  ('Cc1cc(Nc2nc(Nc3cccc4ccccc34)ncc2Cl)c(OC(C)C)cc1C1CCNCC1', 'IC50 at 48 h', 2200),
  ('Cc1cc(Nc2nc(-c3ccccc3)ncc2F)c(OC(C)C)cc1C1CCNCC1', 'IC50 at 48 h', 2800),
  ('Cc1cc(Nc2nc(-c3ccncc3)ncc2Cl)c(OC(C)C)cc1C1CCNCC1', 'IC50 at 48 h', 2000),
  ('Cc1cc(Nc2nc(-c3ccc4c(c3)OCCO4)ncc2Cl)c(OC(C)C)cc1C1CCNCC1', 'IC50 at 48 h', 1000),
  ('Cc1cc(C)cc(-c2ncc(Cl)c(Nc3cc(C)c(C4CCNCC4)cc3OC(C)C)n2)c1', 'IC50 at 48 h', 2900),
  ('Clc1cnc(-c2ccccc2)nc1Nc1ccc(N2CCNCC2)cc1OC1CCCC1', 'IC50 at 48 h', 2700),
  ('Cc1cc(Nc2nc(C3CC3)ncc2Cl)c(OC(C)C)cc1C1CCNCC1', 'IC50 at 48 h', 2000),
  ('CCC(C)Oc1cc(N2CCNCC2)ccc1Nc1nc(-c2ccccc2)ncc1Cl (stereo not given)', 'IC50 at 48 h', 2300),
  ('Cc1cc(Nc2nc(Nc3ccccc3F)ncc2Cl)c(OC(C)C)cc1C1CCNCC1', 'IC50 at 48 h', 1900);

====

experiment: Cytotoxicity against human HepG2 cells assessed as inhibition of cell growth incubated for 48 hrs by MTT assay; assay type: toxicity, cell-based
measuredParameter: IC50 at 48 h

INSERT INTO measurements (chemicalsmiles, measuredparameter, resultvalue) VALUES
  ('Cc1cc(NC(=O)Nc2ccc(F)cc2)c(OC(C)C)cc1C1CCNCC1', 'IC50 at 48 h', '> 20 µM'),
  ('CC(C)CCOc1cc(N2CCNCC2)ccc1Nc1nc(-c2ccccc2)ncc1Cl', 'IC50 at 48 h', '2.1 µM'),
  ('Cc1cc(Nc2nc(-c3ccc4c(c3)OCO4)ncc2Cl)c(OC(C)C)cc1C1CCNCC1', 'IC50 at 48 h', '1 µM'),
  ('Cc1cc(Nc2nc(-c3ccccc3CO)ncc2Cl)c(OC(C)C)cc1C1CCNCC1', 'IC50 at 48 h', '2 µM'),
  ('CCCc1ccc(-c2ncc(Cl)c(Nc3cc(C)c(C4CCNCC4)cc3OC(C)C)n2)cc1', 'IC50 at 48 h', '2.2 µM'),
  ('Cc1cc(Nc2cc(-c3ccccc3)nc3ccnn23)c(OC(C)C)cc1C1CCNCC1', 'IC50 at 48 h', '4.1 µM'),
  ('CNC(=O)c1ccc(-c2ncc(Cl)c(Nc3cc(C)c(C4CCNCC4)cc3OC(C)C)n2)cc1', 'IC50 at 48 h', '2 µM'),
  ('Cc1cc(Nc2nc(Nc3ccc(F)cc3)ncc2Cl)c(OC(C)C)cc1C1CCNCC1', 'IC50 at 48 h', '2.2 µM'),
  ('Cc1cc(Nc2nc(-c3cnc4ccccc4c3)ncc2Cl)c(OC(C)C)cc1C1CCNCC1', 'IC50 at 48 h', '1 µM');
